Source listed as paper PMC3107500.

Exercise: state measured Kd for each of the binders provided.
# measuredOn: T1, PITPNM3 (Homo sapiens, UniProt Q9BZ71)
# T1 chain: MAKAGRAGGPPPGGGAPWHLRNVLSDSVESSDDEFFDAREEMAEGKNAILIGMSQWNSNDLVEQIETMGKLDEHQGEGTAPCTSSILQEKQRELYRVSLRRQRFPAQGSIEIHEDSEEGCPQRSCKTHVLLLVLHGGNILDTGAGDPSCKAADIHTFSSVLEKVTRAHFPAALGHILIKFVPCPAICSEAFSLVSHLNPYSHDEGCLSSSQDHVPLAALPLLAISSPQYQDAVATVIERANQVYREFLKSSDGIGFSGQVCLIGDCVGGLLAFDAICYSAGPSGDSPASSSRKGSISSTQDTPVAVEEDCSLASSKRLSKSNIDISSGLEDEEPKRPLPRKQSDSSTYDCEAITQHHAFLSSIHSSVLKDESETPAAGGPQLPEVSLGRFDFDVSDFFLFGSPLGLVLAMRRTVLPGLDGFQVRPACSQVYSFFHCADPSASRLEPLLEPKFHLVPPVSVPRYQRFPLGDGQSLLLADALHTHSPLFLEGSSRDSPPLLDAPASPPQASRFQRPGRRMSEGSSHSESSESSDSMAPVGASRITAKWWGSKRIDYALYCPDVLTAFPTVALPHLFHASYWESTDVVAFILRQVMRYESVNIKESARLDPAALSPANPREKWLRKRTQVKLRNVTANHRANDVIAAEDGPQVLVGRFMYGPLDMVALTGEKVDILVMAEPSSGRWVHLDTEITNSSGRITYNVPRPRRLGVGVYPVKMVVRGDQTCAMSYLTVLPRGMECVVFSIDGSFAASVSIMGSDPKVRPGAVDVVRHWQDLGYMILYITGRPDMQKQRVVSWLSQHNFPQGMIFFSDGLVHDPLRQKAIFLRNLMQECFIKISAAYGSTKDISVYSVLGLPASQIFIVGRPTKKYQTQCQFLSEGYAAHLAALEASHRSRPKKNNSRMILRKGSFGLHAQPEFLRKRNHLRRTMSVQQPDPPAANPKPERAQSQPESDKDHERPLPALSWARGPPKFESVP
# measurementDescription: 125I-CCL18 radioligand competition binding on PITPNM3-transfected HEK293 cells
The response must be a number in nM with no trailing unit.

Qu. Given the binder CCL18 (protein) GTNKELCCLVYTSWQIPQKFIVDYSETSPQCPKPGVILLTKRGRQICADPNKKWVQKYISDLKLNA , what is its reported Kd?
Ans. 5.17

Qu. Given the binder CCL4 (protein) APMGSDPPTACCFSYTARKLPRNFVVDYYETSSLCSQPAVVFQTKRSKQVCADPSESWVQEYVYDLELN , what is its reported Kd?
Ans. 833

Qu. Given the binder CCL3 (protein) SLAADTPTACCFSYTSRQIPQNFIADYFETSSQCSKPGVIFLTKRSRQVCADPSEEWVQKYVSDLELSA , what is its reported Kd?
Ans. 277
